Target: T1, recombinant rat CTGF protein (R&D Systems) (rat, UniProt Q9R1E9 25-347)
T1 construct: Bought; also called rCTGF
T1 sequence: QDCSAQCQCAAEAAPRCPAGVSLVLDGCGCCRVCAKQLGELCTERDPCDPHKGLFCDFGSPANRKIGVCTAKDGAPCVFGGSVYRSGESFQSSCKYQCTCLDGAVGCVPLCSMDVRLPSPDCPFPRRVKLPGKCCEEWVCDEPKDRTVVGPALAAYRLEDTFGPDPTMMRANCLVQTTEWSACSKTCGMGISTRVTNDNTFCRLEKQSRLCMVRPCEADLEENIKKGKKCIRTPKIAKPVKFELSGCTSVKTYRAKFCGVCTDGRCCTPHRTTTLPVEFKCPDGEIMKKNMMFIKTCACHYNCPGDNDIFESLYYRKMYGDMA
Test: SPR (Biacore)
assay.endpoint: pKd
Note on units: pKd is unitless, being -log10 of a concentration expressed in mol/L.

Some binders with recorded pKd:
>  <binder>
lipocalin mutein of SEQ ID NO: 7 (designed binder, Parent hNGAL mutein; also called hNGAL mutein) QDSTSDLIPAPPLSKVPLQQNFQDNQFHGKWYVVGLAGNYGLRTDKRPSKMFATIYELKEDKSYDVTSVRFEQERCHYTIRTFVPGSQPGEFTTGSIKSRPGQTSSLVRVVSTNYNQHAMVFFKSVIQNREYFAITLYGRTKELTSELKENFIRFSKSLGLPENHIVFPVPIDQCIDGSAWSHPQFEK

>  <assay.endpoint>
pKd

>  <readout.number>
7.20

$$$$
>  <binder>
lipocalin mutein of SEQ ID NO: 25 (designed binder, Parent hNGAL mutein; also called hNGAL mutein) QDSTSDLIPAPPLSKVPLQQNFQDNQFHGKWYVVGMAGNFRLREDKDPSKMGATIYELKEDKSYNVTQVQFDDKKCLYVIETFVPGSQPGEFTLGAIKSFPGFTSQLVRVVSTNYNQHAMVFFKKVYQNREVFWITLYGRTKELTSELKENFIRFSKSLGLPENHIVFPVPIDQCIDGSAWSHPQFEK

>  <assay.endpoint>
pKd

>  <readout.number>
7.56

$$$$

Kindly review the next binder as well.
(Q) What value of pKd has been reported for the following binder? lipocalin mutein of SEQ ID NO: 9 (designed binder, Parent hNGAL mutein; also called hNGAL mutein) QDSTSDLIPAPPLSKVPLQQNFQDNQFHGKWYVVGLAGNKILRIDKQPAKMFATIYELKEDKSYDVTSVRFEARSCSYTIKTFVPGSQPGEFTAGNIKSAPGQTSTLVRVVSTNYNQHAMVFFKHVSQNRETFVITLYGRTKELTSELKENFIRFSKSLGLPENHIVFPVPIDQCIDGSAWSHPQFEK
(A) 7.80
